Values compiled from patent US12715858B2.

- Protocol notes: Solubility in water and bio-relevant media at 37° C. (HPLC of filtrate, pH of filtrate, XRPD of filter cake)
- Format: physicochemical
- Measurement context: SIF, 37° C., 24 h; LOQ is 0.5 μg/mL

{"columns": ["Molecule", "Solubility (mg/mL) 24 h"],
 "data": [
  ["Cc1nn(-c2cc(Cl)c(Oc3cc(C(C)C)c(=O)[nH]n3)c(Cl)c2)c(=O)[nH]c1=O [Free acid Form I]", "<LOQ"],
  ["Cc1nn(-c2cc(Cl)c(Oc3cc(C(C)C)c(=O)[nH]n3)c(Cl)c2)c(=O)[n-]c1=O.[K+] [Potassium salt Form 2]", "<LOQ"],
  ["Cc1nn(-c2cc(Cl)c(Oc3cc(C(C)C)c(=O)[nH]n3)c(Cl)c2)c(=O)[n-]c1=O.[Na+] [Sodium salt Form A]", "<LOQ"],
  ["Cc1nn(-c2cc(Cl)c(Oc3cc(C(C)C)c(=O)[nH]n3)c(Cl)c2)c(=O)[n-]c1=O.[K+] [Potassium salt Form 1]", "<LOQ"]
]}
